Each recorded value in this set is attributed to patent US11446300B2.

# assay.protocol: Phase I study, pharmacokinetics following oral dosing
# Assay type: in vivo, human
# measurement.parameters: human, plasma, oral, 20 mg/twice daily; Table 3, n=43; read-out: SS Cmax
measurement.label: Cmax (nM)
Entry rule: numbers only, all in nM.

Consider the compound shown here: CCS(=O)(=O)N1CCN(c2ccc(Nc3ncc(C(N)=O)c(NC4CC4)n3)cc2)CC1 What is its recorded Cmax?
890

---

# assay.protocol: Phase I study, pharmacokinetics following oral dosing
# Format: in vivo, human
# measurement.parameters: human, plasma, po, 20 mg twice daily, 20 mg/twice daily oral; Table 2, n=28; read-out: SS Cmax
measurement.label: Cmax (nM)
Entry rule: numbers only, all in nM.

Consider the compound shown here: CCS(=O)(=O)N1CCN(c2ccc(Nc3ncc(C(N)=O)c(NC4CC4)n3)cc2)CC1 What is its recorded Cmax?
890

---

# assay.protocol: Phase I study, pharmacokinetics following oral dosing
# Type: in vivo, human
# measurement.parameters: human, plasma, oral, 40 mg/day; Table 3, n=43; read-out: SS Cmax
measurement.label: Cmax
Kindly report the value followed by its unit.

Consider the compound shown here: CCS(=O)(=O)N1CCN(c2ccc(Nc3ncc(C(N)=O)c(NC4CC4)n3)cc2)CC1 What is its recorded Cmax?
1480 nM

---

# assay.protocol: Phase I study, pharmacokinetics following oral dosing
# Type: in vivo, human
# measurement.parameters: human, plasma, oral; 45 mg/day; Table 3, n=43
measurement.label: AUC (µM·h)
Entry rule: numbers only, all in µM·h.

Consider the compound shown here: CCS(=O)(=O)N1CCN(c2ccc(Nc3ncc(C(N)=O)c(NC4CC4)n3)cc2)CC1 What is its recorded AUC?
26.6

---

# System: U2932
# assay.protocol: DLBCL cell line viability, CellTiter Glo, ten-point curve
# Type: cell-based
# measurement.parameters: Homo sapiens, read-out: IC50 of Kinase Inhibitor in Cell Titer Glo Assay
measurement.label: IC50 (µM)
Entry rule: numbers only, all in µM.

Some entries whose results are on file:
CC[C@H](Nc1ncnc2[nH]cnc12)c1nc2cccc(F)c2c(=O)n1-c1ccccc1: 40
C[C@H](Nc1ncnc2nc[nH]c12)c1cc2cccc(Cl)c2c(=O)n1-c1ccccc1: 27
COc1cccc2c1C(=O)c1c(O)c3c(c(O)c1C2=O)C[C@@](O)(C(=O)CO)C[C@@H]3O[C@H]1C[C@H](N)[C@H](O)[C@H](C)O1: 0.35

Consider the molecule shown here: CCS(=O)(=O)N1CCN(c2ccc(Nc3ncc(C(N)=O)c(NC4CC4)n3)cc2)CC1 What is its recorded IC50?
2.6

---

# assay.protocol: Phase I study, pharmacokinetics following oral dosing
# Format: in vivo, human
# measurement.parameters: human, plasma; 15 mg/twice daily oral; Table 2, n=28
measurement.label: AUC (µM·h)
Entry rule: numbers only, all in µM·h.

Consider the compound shown here: CCS(=O)(=O)N1CCN(c2ccc(Nc3ncc(C(N)=O)c(NC4CC4)n3)cc2)CC1 What is its recorded AUC?
4.7

---

# assay.protocol: Phase I study, pharmacokinetics following oral dosing
# Type: in vivo, human
# measurement.parameters: human, plasma, oral; 40 mg/day; Table 3, n=43
measurement.label: AUC

Consider the compound shown here: CCS(=O)(=O)N1CCN(c2ccc(Nc3ncc(C(N)=O)c(NC4CC4)n3)cc2)CC1 What is its recorded AUC?
27.3 µM·h

---

# assay.protocol: Phase I study, pharmacokinetics following oral dosing
# Type: in vivo, human
# measurement.parameters: human, plasma, oral, 15 mg/day; Table 3, n=43; read-out: SS Cmax
measurement.label: Cmax (nM)
Entry rule: numbers only, all in nM.

Consider the compound shown here: CCS(=O)(=O)N1CCN(c2ccc(Nc3ncc(C(N)=O)c(NC4CC4)n3)cc2)CC1 What is its recorded Cmax?
380
